- tested_on: IL36R
- assay_text: Kd (SPR)
attribute_measured: pKd
Scale: pKd equals -log10([C]), with [C] in mol/L.

Value of measured pKd for the entry unnamed (protein) chain 1: QVQLVQSGAEVKKPGASVKVSCKASGYSFTSNWIHWVKQAPGQGLEWMGEIYPGNSNTNYNENFRNKVTMTVDTSISTAYMELSRLRSDDTAVYYCTRVRYGEPWFDYWGQGTLVTVSS chain 2: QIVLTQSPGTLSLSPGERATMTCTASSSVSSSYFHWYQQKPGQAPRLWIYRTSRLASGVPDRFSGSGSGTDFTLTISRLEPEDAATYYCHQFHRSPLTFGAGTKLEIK : 8.47

Record unnamed (protein) chain 1: QVQLVQSGAEVKKPGASVKVSCKASGYTFTSNWIHWVKQAPGQGLEWMGEIYPGNSNTNYNENFRNKVTMTVDTSISTAYMELSRLRSDDTAVYYCTRVKYGEPYFDYWGQGTLVTVSS chain 2: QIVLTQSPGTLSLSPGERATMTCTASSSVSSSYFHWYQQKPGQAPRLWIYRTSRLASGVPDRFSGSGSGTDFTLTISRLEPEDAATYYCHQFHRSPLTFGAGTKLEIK , field pKd: 7.27

pKd measured on unnamed (protein) chain 1: QVQLVQSGAEVKKPGASVKVSCKASGYSFTSSWIHWVKQAPGQGLEWMGEINPGNVRTNYNENFRNKVTMTVDTSISTAYMELSRLRSDDTAVYYCTRSRYGEPYFDYWGQGTLVTVSS chain 2: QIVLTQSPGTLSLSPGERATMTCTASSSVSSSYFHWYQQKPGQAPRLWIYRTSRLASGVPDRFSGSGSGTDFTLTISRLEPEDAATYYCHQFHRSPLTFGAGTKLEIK = 8.32

These entries and their values trace back to the FLAb antibody collection (doi:10.1101/2023.12.08.570889).
